# Test system: K562 CRISPRi cells
# protocol.summary: Constant region variant library pooled growth screen, K562
# Assay type: cell-based, human
# assay.conditions: sgRNA constant region variants; activity relative to the original, un-modified constant region cr995
# Source text: We calculated relative activities for each targeting sequence:constant region pair by normalizing its phenotype to that of the targeting sequence paired with the unmodified constant region, identifying 409 constant region variants that on average conferred intermediate activity (0.1-0.9, FIG. 5B). Ten variants selected for individual evaluation also mediated intermediate levels of mRNA knockdown (FIG. 6B). […]
recorded.metric: Mean relative activity
Reply with just the number.

Item: cr297 (nucleic acid, listed as DNA, chemistry not fully specified) guide: GTTTAAGAGCTAAGCTGGAAACAGCATAGCAAGTTTAAATAAGGCTAGGCCGTTATCAACTTGAAAAAGTCGCACCGAGTCGGTGCT | Mean relative activity: 0.004872

Item: cr293 (nucleic acid, listed as DNA, chemistry not fully specified) guide: GTTTAAGAGCTAAGCTGGAAACAGCATAGCAAGTTTAAATAAGGCTAGTCCGTTATCAACTTGAAAAAGTGGGACCAAGTTGGTCCT | Mean relative activity: 1.052
